Target: T1, M Phase Phosphoprotein 8 chromodomain (UniProt Q99549 55-116)
T1 construct: M-phase phosphoprotein 8 (MPP8), chromodomain; also called MPP8 chromo; MPP8; source: E. coli BL21, purified (glutathione resin); not shown: GST, N-terminal, kept
T1 sequence: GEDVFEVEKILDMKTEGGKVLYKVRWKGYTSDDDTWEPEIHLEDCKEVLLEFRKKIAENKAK
Experiment: fluorescence polarisation; protein serially diluted with 10 nM FAM peptide; 25 mM HEPES pH 7.5, 100 mM NaCl, 0.05% NP-40; anisotropy fitted by specific binding with Hill slope
Details: both partners purified
Where no end group is shown, it is not given here. [ ]: non-standard residue; d: D form. The star is where a group is joined. 5FAM = O=C1OC2(c3ccc(O)cc3Oc3cc(O)ccc32)c2ccc(C(=O)*)cc21; Lys(Me3) = C[N+](C)(C)CCCC[C@H](N)C(=O)O
endpoint.label: Kd

[[record]]
binder = "5FAM-WSK[Lys(Me3)]RRR (also: flanking glycines, number not given here) [FAM-WSK(Kme3)RRR peptide]"
result = "6 µM"

